- Tested on: MCF7
- Method notes: NCI tumour cell line growth inhibition, 48 h
The source made the active and inactive calls. Rule as the data show it: active = GI50 up to about 1.1 µM and inactive = higher.
Quantity name: GI50

Examples from the recorded data:
O=c1[nH]c2nccnc2c2c([N+](=O)[O-])cccc12    > 100 µM (inactive)
C#CCOC(=O)C=[N+]=[N-]    > 10 µM (inactive)

Proceed to the following item.
What value of GI50 has been recorded for this entry: "O=C1c2ccccc2C(=O)N1[C@@H](Cc1ccccc1)C(=O)n1cccc1CO" > 100 µM (inactive)

###

- System: SN12C
- Method notes: NCI tumour cell line growth inhibition, 48 h
Active and inactive are the calls of the source. Rule as the data show it: active = GI50 up to about 1.1 µM and inactive = higher. Peptide text beside a SMILES is read from it. * marks the point of attachment. Boc = CC(C)(C)OC(=O)*; OBn = c1ccc(CO*)cc1
Quantity name: GI50

Examples from the recorded data:
C/C=C/[C@@H]1[C@H]2C(=O)[C@]3(Cl)[C@@H](/C=C/C)[C@@H]3C(=O)[C@@]12Cl    > 100 µM (inactive)
O=C1/C(=C/c2ccccc2)CCC/C1=C\c1ccc(O)c(CN2CCCCC2)c1    2.82 µM (inactive)
Cc1c(Cl)ccc2c1NC(=O)C2(O)C(C(=O)c1ccccc1)c1ccccc1 (stereo not drawn)    76.6 µM (inactive)
CC(=O)NC1C(OCc2ccccc2)OC(CO)C(O)C1OCC(=O)NC(C)C(=O)NC(CCC(=O)OCCNC(=O)c1cccc2cc3ccccc3nc12)C(N)=O (stereo not drawn)    22.3 µM (inactive)
CC(=O)C1=NN(c2ccccc2)C2(S1)SC(c1ccccc1)(c1ccccc1)c1ccccc12 (stereo not drawn)    > 100 µM (inactive)

What value of GI50 has been recorded for this entry: COc1ccc(N2C(=O)CC(=O)N(NC(=O)C(C)Oc3ccccc3C)C2=S)cc1 (stereo not drawn) > 100 µM (inactive)

What value of GI50 has been recorded for this entry: NC(=O)CCC(NC(=O)C(F)(F)F)C(=O)O (stereo not drawn) > 100 µM (inactive)

What value of GI50 has been recorded for this entry: "O=[N+]([O-])c1ccc(C2=Nn3c(nnc3-c3ccc(Cl)cc3)SC2)o1" 8.38 µM (inactive)

What value of GI50 has been recorded for this entry: "O=[N+]([O-])c1ccc(-n2nc3ccc4nonc4c3n2)cc1" > 100 µM (inactive)

What value of GI50 has been recorded for this entry: CCOC1CCC2C(CCC(/C=C/c3ccc(O)c4ncccc34)N2C)C1 (stereo not drawn) 4.78 µM (inactive)

What value of GI50 has been recorded for this entry: "N[C@@H](Cc1ccc2oc3cc(=O)c4ccccc4c-3nc2c1)C(=O)O" 55.5 µM (inactive)

What value of GI50 has been recorded for this entry: "CN(C)C(=S)/N=c1\ssc(=S)n1Cc1ccccc1" 0.867 µM (active)

What value of GI50 has been recorded for this entry: CC(C)CC(NC(=O)OC(C)(C)C)C(=O)NC(CC(=O)OCc1ccccc1)C(N)=O (stereo not drawn) (Boc-Leu-Asp(OBn)-NH2; configuration not given here) > 100 µM (inactive)

What value of GI50 has been recorded for this entry: "COc1cc2ncnc(NS(=O)(=O)c3cc4ccccc4s3)c2cc1OC" 70.5 µM (inactive)

What value of GI50 has been recorded for this entry: "C[N+](C)(C)C1=NNC2=Nc3ccccc3SC2=C1" 21.9 µM (inactive)

What value of GI50 has been recorded for this entry: "O=S1(=O)CS(=O)(=O)OCCCO1" > 100 µM (inactive)

What value of GI50 has been recorded for this entry: "Cc1c(Cl)ccc2c(=O)c3cccc(CC(=O)O)c3oc12" > 100 µM (inactive)

What value of GI50 has been recorded for this entry: "CN(C(=O)c1ccc([N+](=O)[O-])cc1)c1ccccc1" > 100 µM (inactive)

What value of GI50 has been recorded for this entry: "C#C[C@@H](CCCC)OC(=O)N[C@H](C)c1ccccc1" 71.6 µM (inactive)

What value of GI50 has been recorded for this entry: "O=C1c2cccnc2S(=O)(=O)N1c1ccc(Oc2ccccc2)cc1" > 100 µM (inactive)

What value of GI50 has been recorded for this entry: COC(=O)C1CCc2nnc(-c3cccnc3)n21 (stereo not drawn) > 100 µM (inactive)

What value of GI50 has been recorded for this entry: "CN(C)c1ccc(/C=N\NC(=O)Nc2cccc3ccccc23)cc1" 11.8 µM (inactive)

###

- Tested on: NCI-H522
- Method notes: NCI tumour cell line growth inhibition, 48 h
Calls of active or inactive are those of the source. Cut-off read from the data, not from the text of the source: active = GI50 up to about 1.1 µM and inactive = higher.
Quantity name: GI50

Examples from the recorded data:
O=C1NC(N2CCCCC2)=N/C1=C\c1ccccc1O    19.8 µM (inactive)
N#CC(NC12CC3CC(CC(C3)C1)C2)c1ccccc1C(F)(F)F (stereo not drawn)    > 100 µM (inactive)
C=CCc1ccc(Oc2cc(CC=C)c3c(c2O)O[C@@H](CO)[C@H]3c2ccc(O)c(-c3cc(CC=C)ccc3O)c2)cc1    18.3 µM (inactive)
NCCCNc1ccc2c(c1)[n+]([O-])c1ccccc1[n+]2[O-]    13.6 µM (inactive)
CC1(C)OCC(COC(=O)C=[N+]=[N-])O1 (stereo not drawn)    > 100 µM (inactive)
COc1cc2c3c(n(C)c(=O)c2cc1OC)-c1cc2c(cc1/C3=C/CCCCBr)OCO2    4.16 µM (inactive)
CC(C)(C)OC(=O)NC(Cc1ccc(OCc2ccccc2)cn1)C(=O)N1CCCCC1 (stereo not drawn)    32.1 µM (inactive)
Cc1cccc(Br)[n+]1[O-]    > 100 µM (inactive)
O=c1[nH]c2nccnc2c2c([N+](=O)[O-])cccc12    49.9 µM (inactive)
COc1cc2c(cc1OC)C13CC[N+]4(C)CC5=CCOC6CC(=O)N2C1C6C5CC34[O-] (stereo not drawn)    > 100 µM (inactive)

What value of GI50 has been recorded for this entry: "Cc1ccc(/N=C/C=C(\Nc2ccc(C)cc2)c2ccc3ccccc3c2)cc1" 2.74 µM (inactive)

What value of GI50 has been recorded for this entry: COc1ccc(N2C(=O)C3c4[nH]c5ccccc5c4C4CC(C)(C)CC(C)(C)C4C3C2=O)cc1 (stereo not drawn) 17.2 µM (inactive)

What value of GI50 has been recorded for this entry: CCOC(=O)C1=CC(C)(C(=O)OCC)Nc2c(nc(N)[nH]c2=O)N1 (stereo not drawn) > 10 µM (inactive)

###

Here, each record is paired with measured GI50 data.
- System: HOP-92
- Method notes: NCI tumour cell line growth inhibition, 48 h
The source made the active and inactive calls. No stated cut-off is given here; in the data, active = GI50 up to about 1.1 µM and inactive = higher.

O=C1c2cccnc2S(=O)(=O)N1c1ccc(Oc2ccccc2)cc1    > 100 µM (inactive)
CCOC1CCC2C(CCC(/C=C/c3ccc(O)c4ncccc34)N2C)C1 (stereo unspecified)    11.7 µM (inactive)

Proceed to the following item.
Please provide the recorded GI50 for COc1cc2c(cc1OC)C13CC[N+]4(C)CC5=CCOC6CC(=O)N2C1C6C5CC34[O-] (stereo unspecified) , tested on HOP-92. > 100 µM (inactive)

###

Here, each record is paired with measured GI50 data.
- Tested on: M14
- Method notes: NCI tumour cell line growth inhibition, 48 h
Active and inactive are the calls of the source. No stated cut-off is given here; in the data, active = GI50 up to about 1.1 µM and inactive = higher.

Examples from the recorded data:
C=C(C(=O)OC)[C@H]1CC/C(C)=C/CC[C@@](C)(O)C=CC[C@@]2(C)O[C@@H]2C1    62.8 µM (inactive)
COc1cc(O)c2c(c1O)C(=O)c1cc(C)ncc1C2=O    24.8 µM (inactive)
CN/C(=N\N=C1/C(=O)Nc2ccccc21)SCC(=O)c1ccc(Br)cc1    11.7 µM (inactive)
C/C(=N\NC(N)=S)c1ccc(C)c(C)c1    41.7 µM (inactive)
O=C1CC2(CCNCC2)C(=O)N1N1CCCC1    > 100 µM (inactive)
COC(=O)C(Cc1ccccc1I)C1=CCC2(CC1)OCCO2 (stereo unspecified)    22.3 µM (inactive)

What value of GI50 has been recorded for this entry: NC1C=NNC1=O (stereo unspecified) > 100 µM (inactive)

What value of GI50 has been recorded for this entry: "Cc1ccc(/N=C/C=C(\Nc2ccc(C)cc2)c2ccc3ccccc3c2)cc1" 1.13 µM (inactive)

What value of GI50 has been recorded for this entry: "C=C1C(=O)C=C[C@]2(C)CC[C@H]3C(=C)C(=O)O[C@@H]3[C@@H]12" 1.76 µM (inactive)

What value of GI50 has been recorded for this entry: CC(C)C1=CC(=O)C(C)(C2=NC(C)(C)CO2)c2ccccc21 (stereo unspecified) > 100 µM (inactive)

What value of GI50 has been recorded for this entry: "Cc1ccc(/C(=C/C=C(C#N)C#N)Sc2cc(Cl)ccc2Cl)cc1" 4.48 µM (inactive)

What value of GI50 has been recorded for this entry: COC(=O)C1=CCON(c2ccccc2)C1c1ccccc1 (stereo unspecified) 32.2 µM (inactive)

What value of GI50 has been recorded for this entry: "CO/C(N)=C(C#N)/N=C/c1ccccc1" 79.6 µM (inactive)

What value of GI50 has been recorded for this entry: CC1(C)OC1COc1c2occc2cc2ccc(=O)oc12 (stereo unspecified) > 100 µM (inactive)

What value of GI50 has been recorded for this entry: COC(=O)C1CCc2nnc(-c3cccnc3)n21 (stereo unspecified) > 100 µM (inactive)

What value of GI50 has been recorded for this entry: "Nc1ccc(Oc2ccc(C34CC5C6CC7(c8ccc(Oc9ccc(N)cc9)cc8)CC5C(C3)C(C7)C6C4)cc2)cc1" > 100 µM (inactive)
